- System tested: human TRPM8 receptor (Homo sapiens)
- Construct: expressed in transfected cells; host or cells: HEK293, stably transfected, tetracycline-inducible expression
- Sequence (Q7Z2W7 whole entry): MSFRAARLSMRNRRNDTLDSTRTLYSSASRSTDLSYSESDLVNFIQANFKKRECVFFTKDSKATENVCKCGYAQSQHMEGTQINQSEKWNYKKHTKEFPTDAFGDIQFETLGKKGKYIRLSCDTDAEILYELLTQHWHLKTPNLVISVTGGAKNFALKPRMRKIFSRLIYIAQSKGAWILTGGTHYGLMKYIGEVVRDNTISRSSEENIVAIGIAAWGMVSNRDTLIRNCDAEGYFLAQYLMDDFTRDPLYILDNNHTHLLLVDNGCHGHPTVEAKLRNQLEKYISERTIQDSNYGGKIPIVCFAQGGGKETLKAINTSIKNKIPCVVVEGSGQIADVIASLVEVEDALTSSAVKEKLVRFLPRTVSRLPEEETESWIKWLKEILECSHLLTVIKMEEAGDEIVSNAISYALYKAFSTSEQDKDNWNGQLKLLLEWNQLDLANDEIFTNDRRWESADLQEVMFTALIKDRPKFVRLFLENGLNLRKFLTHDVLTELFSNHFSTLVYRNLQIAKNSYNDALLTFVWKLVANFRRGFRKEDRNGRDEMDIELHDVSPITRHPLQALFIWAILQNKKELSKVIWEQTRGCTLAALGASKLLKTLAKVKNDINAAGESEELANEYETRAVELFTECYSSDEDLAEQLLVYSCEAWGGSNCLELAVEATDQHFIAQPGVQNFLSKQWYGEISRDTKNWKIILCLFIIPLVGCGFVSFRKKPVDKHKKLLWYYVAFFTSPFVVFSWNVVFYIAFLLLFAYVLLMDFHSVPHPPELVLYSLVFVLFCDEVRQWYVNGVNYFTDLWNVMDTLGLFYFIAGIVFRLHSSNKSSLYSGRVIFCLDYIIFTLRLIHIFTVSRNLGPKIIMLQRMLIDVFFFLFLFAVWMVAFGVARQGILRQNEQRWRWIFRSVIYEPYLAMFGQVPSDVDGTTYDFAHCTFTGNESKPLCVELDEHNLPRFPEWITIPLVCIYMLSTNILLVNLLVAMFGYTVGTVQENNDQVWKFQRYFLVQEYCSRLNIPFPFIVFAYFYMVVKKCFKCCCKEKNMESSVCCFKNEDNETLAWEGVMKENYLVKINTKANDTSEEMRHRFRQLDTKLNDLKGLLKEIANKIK
- Assay comment: Assay on TRPM8 modulators: Ca2+-sensitive dye (Fluo-4) fluorescence in HEK293-TRPM8 test cells
- Format: cell-based
- Design: concentration or dose not given beside the values
- Condition details: HEK293 cells recombinantly expressing human TRPM8
Measured endpoint: relative TRPM8 activation (%)
All answers are understood in %, so give the number only.

Reference set (5 entries):
- Compound: "CC(Sc1nnc(-c2ccccc2)c(-c2ccccc2)n1)C(=O)NCc1cccs1 (stereo not shown) [Compound B-48]"
  Unit annotation: "%"
  relative TRPM8 activation: 4
- Compound: "CN(C)CCSc1nc(-c2ccccc2)c(-c2ccccc2)o1 [Compound A-23]"
  Unit annotation: "%"
  relative TRPM8 activation: 62
- Compound: "CNC(=O)CCSc1nc(-c2ccccc2)c(-c2ccccc2)o1 [Compound A-49]"
  Unit annotation: "%"
  relative TRPM8 activation: 2
- Compound: "CNC(=O)C(C)Sc1nnc(C)c(C)n1 (stereo not shown) [Compound B-60]"
  Unit annotation: "%"
  relative TRPM8 activation: 1
- Compound: "CC(C)C(C)NC(=O)CSc1nc(-c2ccccc2)c(-c2ccccc2)o1 (stereo not shown) [Compound A-46]"
  Unit annotation: "%"
  relative TRPM8 activation: 2

Consider the compound CCCCNC(=O)CSc1nc(-c2ccccc2)c(-c2ccccc2)o1 [Compound A-70] tested on human TRPM8 receptor (Homo sapiens); state its relative TRPM8 activation.
−2

Consider the compound COCCNc1nnc(-c2ccccc2)c(-c2ccccc2)n1 [Compound B-55] tested on human TRPM8 receptor (Homo sapiens); state its relative TRPM8 activation.
2

Consider the compound CCC(=O)CSc1nc(-c2ccccc2)c(-c2ccccc2)o1 [Compound A-61] tested on human TRPM8 receptor (Homo sapiens); state its relative TRPM8 activation.
0

Consider the compound CCN(CC)C(=O)CSc1nc(-c2ccccc2)c(-c2ccccc2)o1 [Compound A-29] tested on human TRPM8 receptor (Homo sapiens); state its relative TRPM8 activation.
36

Consider the compound OCCSc1nc(-c2ccccc2)c(-c2ccccc2)o1 [Compound A-60] tested on human TRPM8 receptor (Homo sapiens); state its relative TRPM8 activation.
0

Consider the compound CC(Sc1nc(-c2ccccc2)c(-c2ccccc2)o1)C(=O)NC1CCCC1 (stereo not shown) [Compound A-30] tested on human TRPM8 receptor (Homo sapiens); state its relative TRPM8 activation.
26

Consider the compound c1ccc(-c2nc(C3CCCCN3)oc2-c2ccccc2)cc1 (stereo not shown) [Compound A-44, 4,5-diphenyl-2-(2-piperidyl)oxazole] tested on human TRPM8 receptor (Homo sapiens); state its relative TRPM8 activation.
3

Consider the compound COC(=O)Nc1nnc(-c2ccccc2)c(-c2ccccc2)n1 [Compound B-41] tested on human TRPM8 receptor (Homo sapiens); state its relative TRPM8 activation.
8

Consider the compound COC(=O)CCc1nc(-c2ccccc2)c(-c2ccccc2)o1 [Compound A-73] tested on human TRPM8 receptor (Homo sapiens); state its relative TRPM8 activation.
−5

Consider the compound CN(C(=O)CSc1nc(-c2ccccc2)c(-c2ccccc2)o1)C1CC1 [Compound A-27] tested on human TRPM8 receptor (Homo sapiens); state its relative TRPM8 activation.
42

Consider the compound CNC(=O)CCSc1nnc(-c2ccccc2)c(-c2ccccc2)n1 [Compound B-26] tested on human TRPM8 receptor (Homo sapiens); state its relative TRPM8 activation.
56

Consider the compound CNC(=O)C(C)Sc1nc(-c2ccccc2)c(-c2ccccc2)[nH]1 (stereo not shown) [Compound A-47] tested on human TRPM8 receptor (Homo sapiens); state its relative TRPM8 activation.
2

Consider the compound Cc1ccc(-c2nnc(SCC(=O)NC3CC3)nc2-c2ccc(C)cc2)cc1 [Compound B-62] tested on human TRPM8 receptor (Homo sapiens); state its relative TRPM8 activation.
0

Consider the compound CC(C)C(=O)CSc1nnc(-c2ccccc2)c(-c2ccccc2)n1 [Compound B-25] tested on human TRPM8 receptor (Homo sapiens); state its relative TRPM8 activation.
57
